molecular target: CDK6/cycD3 (Homo sapiens (Human), UniProt Q00534); assay: CDK kinase assay (Caliper, FAM-labeled peptide); details: read-out: IC50(CDK6); CDK6/cycD3, ATP 800 μM
Sequence (Q00534 whole entry, species assumed): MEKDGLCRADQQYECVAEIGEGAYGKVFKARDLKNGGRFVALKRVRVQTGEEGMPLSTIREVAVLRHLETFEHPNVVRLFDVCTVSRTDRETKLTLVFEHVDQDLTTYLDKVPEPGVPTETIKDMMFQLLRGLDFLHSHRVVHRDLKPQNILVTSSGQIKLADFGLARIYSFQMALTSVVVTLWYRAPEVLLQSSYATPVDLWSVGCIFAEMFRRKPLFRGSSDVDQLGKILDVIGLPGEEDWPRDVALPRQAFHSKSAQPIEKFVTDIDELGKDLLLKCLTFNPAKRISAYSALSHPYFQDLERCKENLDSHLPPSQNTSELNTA
Sequence (P30281 whole entry partner, species assumed): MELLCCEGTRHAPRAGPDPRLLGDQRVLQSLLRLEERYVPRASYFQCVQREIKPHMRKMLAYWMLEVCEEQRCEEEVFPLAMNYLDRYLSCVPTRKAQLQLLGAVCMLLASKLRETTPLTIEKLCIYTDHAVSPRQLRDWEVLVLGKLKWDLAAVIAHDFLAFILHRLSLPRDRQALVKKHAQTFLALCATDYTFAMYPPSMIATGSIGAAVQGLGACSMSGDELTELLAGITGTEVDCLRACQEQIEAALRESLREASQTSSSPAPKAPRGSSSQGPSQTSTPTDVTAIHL
RECORDED_METRIC: IC50 (nM)
// return numeric value only (unit: nM, not printed)

Problem: Consider the compound shown here: CC1CCCn2c1nc1c(F)cc(-c3ccnc(Nc4ccc(N5CCN(C)CC5)cn4)n3)cc12 (stereo not shown) What is its recorded IC50?
Solution: 110

----------
biological target: CDK2/CycA2 (Homo sapiens (Human), UniProt P24941); assay: CDK kinase assay (Caliper, FAM-labeled peptide)
Listed here: items and their measured IC50.

Consider the worked cases shown below.
CCN1CCN(Cc2ccc(Nc3ncc(F)c(-c4cc(F)c5nc6n(c5c4)C(C)COC6)n3)nc2)CC1 (single isomer, unassigned) [Compound 16b] ... > 300 nM
CCN1CCN(Cc2ccc(Nc3ncc(F)c(-c4cc(F)c5nc6n(c5c4)C(C)CCC6)n3)nc2)CC1 (stereo not drawn) [Compound 2] ... > 300 nM

Moving on to another compound below.
Problem: Look at this compound and give its reported IC50. CC1CCCc2nc3c(F)cc(-c4ccnc(Nc5ccc(N6CCN(C)CC6)cn5)n4)cc3n21 (stereo not drawn) [Compound 1]
Solution: > 300 nM
